Provide the recorded GI50 for the entries that follow.
Tested on: RPMI-8226
measurement-notes: NCI tumour cell line growth inhibition, 48 h
The source made the active and inactive calls. No stated cut-off is given here; in the data, active = GI50 up to about 1.1 µM and inactive = higher.

IN: Consider the compound COc1ccc(N2C(=O)C3CC(c4ccc(Br)cc4)c4c([nH]c5ccccc45)C3C2=O)cc1 (stereo not given) and give its recorded GI50.
OUT: 26.7 µM (inactive)

IN: Consider the compound OC1OCC(COc2cc(Cl)c(Cl)cc2Cl)OC1O (stereo not given) and give its recorded GI50.
OUT: 26.7 µM (inactive)

IN: Consider the compound `O=c1c2cc(Br)ccc2[nH]c(=S)n1-c1ccc(Br)cc1` and give its recorded GI50.
OUT: > 100 µM (inactive)

IN: Consider the compound `N#Cc1c(O)c(/C=N/c2ncccn2)c(=O)n2c1[nH]c1ccccc12` and give its recorded GI50.
OUT: > 100 µM (inactive)

IN: Consider the compound `CC1(C)C(=O)C(=Cc2ccco2)C1=O` and give its recorded GI50.
OUT: > 100 µM (inactive)

IN: Consider the compound Cc1cc2nc3c(C(OC4OC(CO)C(O)C(O)C4O)C(O)CO)nn(-c4ccc(F)cc4)c3nc2cc1C (stereo not given) and give its recorded GI50.
OUT: > 100 µM (inactive)

IN: Consider the compound COC(=O)C(C(=O)c1ccccc1)C(C(=O)C(=O)Nc1ccc(OC)cc1OC)C(=O)C(=O)c1ccc(C)cc1 (stereo not given) and give its recorded GI50.
OUT: > 100 µM (inactive)

IN: Consider the compound O=S(=O)(/N=S(/Nc1ccccc1)C(Cl)Cl)c1ccccc1 (stereo not given) and give its recorded GI50.
OUT: > 100 µM (inactive)

IN: Consider the compound `CCOC(=O)c1cc2c3c(c(C(C)=O)c(OC)c2[nH]1)N(C(=O)CC)CC3` and give its recorded GI50.
OUT: 5.13 µM (inactive)

IN: Consider the compound `CCCCSC1=N/C(=C\c2ccccc2O)C(=O)N1` and give its recorded GI50.
OUT: 75.5 µM (inactive)

IN: Consider the compound COc1cc([C@@H]2c3cc4c(cc3[C@@H](NC(=O)c3ccc([N+](=O)[O-])cc3)C3COC(=O)[C@@H]32)OCO4)cc(OC)c1O (stereo not given in full) and give its recorded GI50.
OUT: 0.256 µM (active)

IN: Consider the compound `Oc1ccc(Br)cc1/C=N/C1CCCCC1` and give its recorded GI50.
OUT: 28.1 µM (inactive)

IN: Consider the compound `COc1nc2c(c(=O)n1C)N[C@H]1[C@H](OC(C)=O)[C@@H](OC(C)=O)CO[C@H]1N2` and give its recorded GI50.
OUT: > 100 µM (inactive)

IN: Consider the compound `c1csc(-c2cc(-c3ccsc3)cs2)c1` and give its recorded GI50.
OUT: > 100 µM (inactive)

IN: Consider the compound `CN1C(=O)c2ccccc2NC(=O)c2cnn(C)c21` and give its recorded GI50.
OUT: > 100 µM (inactive)

IN: Consider the compound `CSc1ccc(C=C2N=C(c3ccccc3)N(c3cc(C(=O)c4ccccc4)ccc3N3C(=O)/C(=C/c4ccc(SC)cc4)N=C3c3ccccc3)C2=O)cc1` and give its recorded GI50.
OUT: 25.4 µM (inactive)

IN: Consider the compound CC1(C)OC(=O)C(=C2CCC(C(=O)Nc3cccc(C(F)(F)F)c3)N2)C(=O)O1 (stereo not given) and give its recorded GI50.
OUT: 51.2 µM (inactive)

IN: Consider the compound `COc1nc(C(Cl)(Cl)Cl)c(Cl)c(O)c1Cl` and give its recorded GI50.
OUT: > 100 µM (inactive)

IN: Consider the compound `Cc1ccc(S(=O)(=O)Nn2c(O)c(C#N)c(-c3ccc(N(C)C)cc3)c(C#N)c2=O)cc1` and give its recorded GI50.
OUT: 9.75 µM (inactive)

IN: Consider the compound CC(=O)OC(/C=C1/C=CC(=O)O1)COC(=O)c1ccccc1 (stereo not given) [ACETYLMELODORINOL] and give its recorded GI50.
OUT: > 31.2 µM (inactive)

---

Test system: HCT-15
measurement-notes: NCI tumour cell line growth inhibition, 48 h
parameter-measured: GI50 (µM)
Report as a plain number; the unit µM is understood.

IN: Consider the compound `CCOC(=O)/C=C(\C(=O)OCC)n1ccc(=O)n(Cc2cn(COCCOC(C)=O)nn2)c1=O` and give its recorded GI50.
OUT: 18.9

IN: Consider the compound CC1=C(C)C(=O)OC(C(C)(O)C2(O)CCC3(O)C4CC(Cl)C5(O)C(O)C=CC(=O)C5(C)C4CCC32C)C1 (stereo not given) and give its recorded GI50.
OUT: 28.7

IN: Consider the compound `CN(C)c1n/c(=N/Cc2ccco2)ss1` and give its recorded GI50.
OUT: 21.3

IN: Consider the compound `COc1ccc(OC(=O)N2C/C(=C\c3ccccc3)C(=O)/C(=C/c3ccccc3)C2)cc1` and give its recorded GI50.
OUT: 2.79

IN: Consider the compound CCC1(O)C(=O)OCc2c1cc1n(c2=O)Cc2cc3ccc(C=O)cc3nc2-1 (stereo not given) and give its recorded GI50.
OUT: 6.08

IN: Consider the compound COC(=O)C1=CC(=O)OC1(OO)c1ccccc1 (stereo not given) and give its recorded GI50.
OUT: 54

IN: Consider the compound O=C(Nc1nnc(S)[nH]1)C(=O)C(c1cnc2ccc([N+](=O)[O-])cc2n1)[N+](=O)[O-] (stereo not given) and give its recorded GI50.
OUT: 72.9

IN: Consider the compound `COc1ccc(OC)c(C[P+](c2ccccc2)(c2ccccc2)c2ccccc2)c1` and give its recorded GI50.
OUT: 18.5

IN: Consider the compound O=C(O)C1=CN(c2ccncc2)C(c2ccco2)=CC1c1ccccc1[N+](=O)[O-] (stereo not given) and give its recorded GI50.
OUT: 2.05

IN: Consider the compound CC(C)CCCC(C)[C@H]1CC[C@H]2n3c(nc4ccccc43)CCC[C@]12C (stereo not given in full) and give its recorded GI50.
OUT: 15

IN: Consider the compound `CC(C)(CN1CCCCC1)C(=O)/C=C/c1ccc(/C=C/C(=O)C(C)(C)CN2CCCCC2)cc1` and give its recorded GI50.
OUT: 0.204

IN: Consider the compound `COc1ccc(-n2cnnc2-c2nsc3ccccc23)cc1` and give its recorded GI50.
OUT: 51.6

---

Provide the recorded GI50 for the entries that follow.
Test system: EKVX
measurement-notes: NCI tumour cell line growth inhibition, 48 h
Activity calls are given as the source filed them. Cut-off read from the data, not from the text of the source: active = GI50 up to about 1.1 µM and inactive = higher.

IN: Quote EKVX GI50 for entry `c1ccc2c(c1)C(=Nc1ccc(N=C3c4ccccc4-c4ccccc43)cc1)c1ccccc1-2` .
OUT: > 100 µM (inactive)

IN: Quote EKVX GI50 for entry `COc1ccc(/C=C2\c3cc(OC)c(OC)cc3CCN2C(=O)c2ccccc2)cc1OC` .
OUT: 4.09 µM (inactive)

IN: Quote EKVX GI50 for entry CSc1ncnc2c1ncn2CC(=O)C1CCC2C3CCC4=CC(=O)CCC4(C)C3CCC12C (centres undefined) .
OUT: 5.55 µM (inactive)

IN: Quote EKVX GI50 for entry C[C@H](C1CC2(C)OC2(C)C(=O)O1)[C@H]1CC[C@H]2[C@@H]3[C@@H]4O[C@@H]4[C@@]4(O)CC=CC(=O)[C@]4(C)[C@H]3CC[C@]12C (some centres undefined) .
OUT: > 50 µM (inactive)

IN: Quote EKVX GI50 for entry COC(=O)C1(C)CCC(c2ccc(C)cc2)=C(CC(=O)O)C1 (centres undefined) .
OUT: > 100 µM (inactive)

IN: Quote EKVX GI50 for entry `O=C1C(Cl)=C(N2CCN(c3ncccn3)CC2)C(=O)c2c(O)ccc(O)c21` .
OUT: 11.4 µM (inactive)

IN: Quote EKVX GI50 for entry `CSc1ccc(C(=C=C=C(c2ccc(SC)s2)c2ccc(SC)s2)c2ccc(SC)s2)s1` .
OUT: > 10 µM (inactive)

IN: Quote EKVX GI50 for entry O=C1NC(c2ccccc2Cl)Nc2ccccc21 (centres undefined) .
OUT: 27.7 µM (inactive)

IN: Quote EKVX GI50 for entry `CC1(C)O[C@@H]2[C@@H]3OC(=O)C[C@@H]3[C@@H](COCc3ccccc3)[C@@H]2O1` .
OUT: > 100 µM (inactive)

---

System: NCI-H23
measurement-notes: NCI tumour cell line growth inhibition, 48 h
Calls of active or inactive are those of the source. Cut-off read from the data, not from the text of the source: active = GI50 up to about 1.1 µM and inactive = higher.
Reply using exactly one outcome from true = active, false = inactive

IN: Called result for COC1CCC(OC2CC(C3(C)CCC4(CC(O)C(C)C(C(C)/C=C(\C)C(=O)C(C)CC(C)C(=O)O)O4)O3)OC3(OC(C4OC(O)(CO)C(C)CC4C)CC3C)C2C)OC1C (stereo not given)
OUT: true

IN: Called result for CC(=O)OC1C2CCC3CC2C2(SCCS2)C31 (stereo not given)
OUT: false

IN: Called result for `COc1ccc(N2C(=O)C(=O)C3(CCCCC3)C2=O)c2ccccc12`
OUT: false

IN: Called result for `O=[N+]([O-])c1ccc(N2C[N+](c3ccccc3)=NC(c3ccccc3)=N2)cc1`
OUT: false

IN: Called result for `O=C(c1ccccc1)c1cc[n+](C2=C([N-]S(=O)(=O)c3ccccc3)C(=O)c3ccccc3C2=O)cc1`
OUT: false

IN: Called result for `COc1c(-c2ccc3c(c2)OCO3)oc2cc(O)cc(O)c2c1=O`
OUT: false

IN: Called result for `O=c1c2cc(Br)ccc2[nH]c(=S)n1-c1ccc(Br)cc1`
OUT: false

IN: Called result for CC(=O)OC1OC2C(NC(=O)OC(C)(C)C)C1CC2(OCc1ccccc1)OCc1ccccc1 (stereo not given)
OUT: false

IN: Called result for COC(CNC(=O)C(C)NC(=O)CCc1ccccc1)OC (stereo not given)
OUT: false

IN: Called result for `COc1nc(C(Cl)(Cl)Cl)c(Cl)c(O)c1Cl`
OUT: false

The reported numbers originate from ChEMBL document CHEMBL1201862.
